# Lookup of reported pIC50 keyed by entry
# tested system: RET (Homo sapiens)
# Construct: polyhistidine (N)
# Sequence (P07949 658-1114 limits assumed): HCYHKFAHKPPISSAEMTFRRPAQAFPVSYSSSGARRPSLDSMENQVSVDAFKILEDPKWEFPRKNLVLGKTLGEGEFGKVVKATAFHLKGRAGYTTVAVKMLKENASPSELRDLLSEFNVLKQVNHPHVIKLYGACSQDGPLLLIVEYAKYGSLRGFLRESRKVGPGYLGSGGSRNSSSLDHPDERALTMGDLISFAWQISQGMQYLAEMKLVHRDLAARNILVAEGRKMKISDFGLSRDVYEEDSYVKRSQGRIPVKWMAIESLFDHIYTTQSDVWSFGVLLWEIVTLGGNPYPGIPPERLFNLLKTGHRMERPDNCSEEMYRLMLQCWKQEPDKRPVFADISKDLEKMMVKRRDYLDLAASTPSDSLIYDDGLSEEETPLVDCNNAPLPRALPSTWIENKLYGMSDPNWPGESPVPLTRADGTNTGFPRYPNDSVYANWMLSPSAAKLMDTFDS
# protocol text: RET kinase screening assay (33P-ATP FlashPlate);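 note: biotinylated peptide substrate captured on streptavidin FlashPlate, 33P phosphate transfer read by scintillation counting, 1% DMSO, lower incorporation means inhibition, percent relative to per-plate maximum and minimum signals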
# Format: biochemical
# assay setup: human RET kinase domain; 10 μM ATP; 1 hr at 30° C
pIC50: −log10 of the molar value.
measure: pIC50

[
  {
    "test smiles": "CC(C)OCc1cccc2[nH]c(-c3n[nH]c4ncc(-c5cncc6ccccc56)cc34)nc12",
    "reported result": "< 4.00"
  },
  {
    "test smiles": "COCc1cccc2[nH]c(-c3n[nH]c4ncc(-c5cncnc5)cc34)nc12",
    "reported result": "< 4.00"
  },
  {
    "test smiles": "OCc1cccc2[nH]c(-c3n[nH]c4ncc(-c5cncc6ccccc56)cc34)nc12",
    "reported result": "< 4.00"
  },
  {
    "test smiles": "O=C(c1cccc2[nH]c(-c3n[nH]c4ncc(-c5cncc6ccccc56)cc34)nc12)N1CCCC1",
    "reported result": "< 5.00"
  },
  {
    "test smiles": "CNCc1cncc(-c2cnc3[nH]nc(-c4nc5c(COC)cccc5[nH]4)c3c2)c1",
    "reported result": "~6.00"
  },
  {
    "test smiles": "CN(C)CCN(C)C(=O)c1cccc2[nH]c(-c3n[nH]c4ncc(-c5cncc6ccccc56)cc34)nc12",
    "reported result": "~4.00"
  },
  {
    "test smiles": "COCc1cccc2[nH]c(-c3n[nH]c4ncc(-c5cn(S(=O)(=O)c6ccccc6)c6ccccc56)cc34)nc12",
    "reported result": "< 4.00"
  }
]

====

# tested system: Aurora-A (Mus musculus)
# Sequence (P97477 whole entry): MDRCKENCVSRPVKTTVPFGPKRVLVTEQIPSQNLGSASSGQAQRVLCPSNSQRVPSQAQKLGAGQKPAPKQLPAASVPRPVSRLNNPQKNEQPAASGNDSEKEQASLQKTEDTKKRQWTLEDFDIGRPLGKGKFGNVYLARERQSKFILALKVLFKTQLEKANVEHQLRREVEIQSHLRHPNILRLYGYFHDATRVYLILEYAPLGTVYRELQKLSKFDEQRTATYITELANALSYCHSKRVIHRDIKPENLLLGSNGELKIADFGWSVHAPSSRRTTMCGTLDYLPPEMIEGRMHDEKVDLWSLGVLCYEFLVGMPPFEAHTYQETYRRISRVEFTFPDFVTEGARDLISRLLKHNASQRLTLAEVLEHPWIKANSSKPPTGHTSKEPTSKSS
pIC50: −log10 of the molar value.
Returns one of MET or NOT MET; MET when pIC50 is >= 6.

[
  {
    "compound": "CCCCNCc1cncc(-c2cnc3[nH]nc(-c4nc5cc(OC)ccc5[nH]4)c3c2)c1 [Cpd 104]",
    "label": "MET"
  },
  {
    "compound": "COCc1cccc2[nH]c(-c3n[nH]c4ncc(-c5cnc6ccccc6c5)cc34)nc12 [Cpd 34]",
    "label": "NOT MET"
  },
  {
    "compound": "CN1CCN(c2ccc3[nH]c(-c4n[nH]c5ncc(-c6cncc(CN7CCOCC7)c6)cc45)nc3c2)CC1 [Cpd 84]",
    "label": "MET"
  },
  {
    "compound": "COCc1cccc2[nH]c(-c3n[nH]c4ncc(-c5cncc6ccccc56)cc34)nc12 [Cpd 4]",
    "label": "MET"
  },
  {
    "compound": "COCc1cccc2[nH]c(-c3n[nH]c4ncc(-c5cncc(CNC(C)C)c5)cc34)nc12 [Cpd 43]",
    "label": "NOT MET"
  },
  {
    "compound": "CCN(CC)c1ccc(NC(=O)c2cccc3[nH]c(-c4n[nH]c5ncc(-c6cncc7ccccc67)cc45)nc23)c(C)c1 [Cpd 50]",
    "label": "MET"
  },
  {
    "compound": "COCCNCc1cncc(-c2cnc3[nH]nc(-c4nc5cc(N6CCN(C)CC6)ccc5[nH]4)c3c2)c1 [Cpd 86]",
    "label": "MET"
  },
  {
    "compound": "COCc1cccc2[nH]c(-c3n[nH]c4ncc(-c5cncc(CO)c5)cc34)nc12 [Cpd 44]",
    "label": "NOT MET"
  },
  {
    "compound": "COCc1cccc2[nH]c(-c3n[nH]c4ncc(-c5cncc(CNCCO)c5)cc34)nc12 [Cpd 77]",
    "label": "NOT MET"
  }
]

====

Reported IC50 values, CDK1 (Homo sapiens, UniProt P06493).
measure: IC50 (nM)

[
  {
    "test smiles": "COCc1cccc2[nH]c(-c3n[nH]c4ncc(-c5cncc(CNCCN6CCOCC6)c5)cc34)nc12",
    "measure": "IC50",
    "reading unit": "nM",
    "reported result": 551
  },
  {
    "test smiles": "CN(C)Cc1cncc(-c2cnc3[nH]nc(-c4nc5cc(N6CCN(C)CC6)ccc5[nH]4)c3c2)c1",
    "measure": "IC50",
    "reading unit": "nM",
    "reported result": 6.14
  },
  {
    "test smiles": "CNCc1cncc(-c2cnc3[nH]nc(-c4nc5cc(N6CCN(C)CC6)ccc5[nH]4)c3c2)c1",
    "measure": "IC50",
    "reading unit": "nM",
    "reported result": 3.04
  },
  {
    "test smiles": "CNCc1cncc(-c2cnc3[nH]nc(-c4nc5c(COC)cccc5[nH]4)c3c2)c1",
    "measure": "IC50",
    "reading unit": "nM",
    "reported result": 2.54
  },
  {
    "test smiles": "CCN(CC)Cc1cccc2[nH]c(-c3n[nH]c4ncc(-c5cccnc5)cc34)nc12",
    "measure": "IC50",
    "reading unit": "nM",
    "reported result": 24.6
  },
  {
    "test smiles": "CN(C)CCNC(=O)c1cccc2[nH]c(-c3n[nH]c4ncc(-c5cncc6ccccc56)cc34)nc12",
    "measure": "IC50",
    "reading unit": "nM",
    "reported result": 113
  },
  {
    "test smiles": "Fc1ccc2nc(-c3n[nH]c4ncc(-c5cccnc5)cc34)[nH]c2c1",
    "measure": "IC50",
    "reading unit": "nM",
    "reported result": 6.57
  },
  {
    "test smiles": "CCN(CC)c1ccc(NC(=O)c2cccc3[nH]c(-c4n[nH]c5ncc(-c6cncc7ccccc67)cc45)nc23)c(C)c1",
    "measure": "IC50",
    "reading unit": "nM",
    "reported result": 40.6
  }
]

====

# tested system: CDK1 (Homo sapiens, UniProt P06493)
# Sequence (P06493 whole entry): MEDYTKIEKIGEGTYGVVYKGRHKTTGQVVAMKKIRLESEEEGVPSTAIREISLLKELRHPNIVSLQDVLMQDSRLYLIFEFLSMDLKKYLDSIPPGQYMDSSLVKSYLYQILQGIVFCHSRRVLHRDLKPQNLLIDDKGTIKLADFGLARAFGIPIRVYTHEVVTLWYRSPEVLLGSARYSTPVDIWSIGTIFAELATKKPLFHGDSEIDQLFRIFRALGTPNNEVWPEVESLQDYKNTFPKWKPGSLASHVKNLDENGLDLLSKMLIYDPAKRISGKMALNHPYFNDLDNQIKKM
# Sequence (P14635 whole entry partner): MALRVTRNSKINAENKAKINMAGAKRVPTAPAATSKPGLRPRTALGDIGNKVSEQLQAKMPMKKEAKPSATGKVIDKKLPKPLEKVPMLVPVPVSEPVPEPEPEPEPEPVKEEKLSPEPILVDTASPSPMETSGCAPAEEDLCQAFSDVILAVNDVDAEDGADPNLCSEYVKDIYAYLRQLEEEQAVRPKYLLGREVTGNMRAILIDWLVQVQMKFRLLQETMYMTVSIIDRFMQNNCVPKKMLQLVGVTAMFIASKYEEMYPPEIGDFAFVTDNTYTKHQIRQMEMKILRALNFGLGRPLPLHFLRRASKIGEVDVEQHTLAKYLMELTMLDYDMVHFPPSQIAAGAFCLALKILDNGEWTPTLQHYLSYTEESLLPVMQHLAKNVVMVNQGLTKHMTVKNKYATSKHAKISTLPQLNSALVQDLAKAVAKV
measure: IC50 (nM)

[
  {
    "compound": "COCc1cccc2[nH]c(-c3n[nH]c4ncc(-c5cncc(CNC6CCN(C)CC6)c5)cc34)nc12",
    "censoring qualifier": "=",
    "reported result": 875
  },
  {
    "compound": "COCCOCc1cccc2[nH]c(-c3n[nH]c4ncc(-c5cncc6ccccc56)cc34)nc12",
    "censoring qualifier": "=",
    "reported result": 72.1
  },
  {
    "compound": "CN1CCN(c2ccc3[nH]c(-c4n[nH]c5ncc(-c6cncc7ccccc67)cc45)nc3c2)CC1",
    "censoring qualifier": "=",
    "reported result": 13.6
  },
  {
    "compound": "COCc1cccc2[nH]c(-c3n[nH]c4ncc(-c5ccc(OC)nc5)cc34)nc12",
    "censoring qualifier": ">",
    "reported result": 10000
  },
  {
    "compound": "NC1CCC(NC(=O)c2cccc3[nH]c(-c4n[nH]c5ncc(-c6cncc7ccccc67)cc45)nc23)CC1 (centres unmarked)",
    "censoring qualifier": "=",
    "reported result": 34.9
  },
  {
    "compound": "COCc1cccc2[nH]c(-c3n[nH]c4ncc(-c5cncc(C=NO)c5)cc34)nc12",
    "censoring qualifier": "=",
    "reported result": 23.6
  },
  {
    "compound": "CN1CCN(c2ccc3[nH]c(-c4n[nH]c5ncc(Br)cc45)nc3c2)CC1",
    "censoring qualifier": "=",
    "reported result": 425
  },
  {
    "compound": "CN(C)c1ccc(NC(=O)c2cccc3[nH]c(-c4n[nH]c5ncc(-c6cncc7ccccc67)cc45)nc23)cc1",
    "censoring qualifier": "=",
    "reported result": 64.8
  }
]

====

# tested system: HER2 (Homo sapiens)
# Construct: GST (Glutathione-S-Transferase) (N); HIS6 (N); thrombin cleavage site (N)
# Sequence (P04626 679-1255): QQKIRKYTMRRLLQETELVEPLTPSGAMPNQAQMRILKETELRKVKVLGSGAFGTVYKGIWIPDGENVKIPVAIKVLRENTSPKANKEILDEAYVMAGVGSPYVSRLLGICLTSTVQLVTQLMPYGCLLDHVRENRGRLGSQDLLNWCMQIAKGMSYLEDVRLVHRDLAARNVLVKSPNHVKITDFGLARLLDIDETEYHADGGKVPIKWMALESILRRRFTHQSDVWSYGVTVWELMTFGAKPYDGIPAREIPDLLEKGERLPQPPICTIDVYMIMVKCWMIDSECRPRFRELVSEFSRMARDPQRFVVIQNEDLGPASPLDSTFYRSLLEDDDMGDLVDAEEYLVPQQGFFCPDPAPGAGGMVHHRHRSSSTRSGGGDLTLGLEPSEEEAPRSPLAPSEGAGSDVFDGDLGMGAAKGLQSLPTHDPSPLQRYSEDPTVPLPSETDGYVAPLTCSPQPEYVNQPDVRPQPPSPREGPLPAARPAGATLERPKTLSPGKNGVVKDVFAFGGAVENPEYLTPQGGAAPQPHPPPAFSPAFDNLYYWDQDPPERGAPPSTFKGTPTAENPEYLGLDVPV
# protocol text: HER2 kinase screening assay (33P-ATP FlashPlate);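 note: Biotin-poly(GT) 4:1 peptide captured on streptavidin FlashPlate, 33P transfer from γ-ATP read by scintillation counting, lower incorporation means inhibition, 1% DMSO final, 100 µL reaction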
# assay setup: GST-HIS6 HER-2 aa 679 to 1255; 10 μM ATP; 1 hr at 30° C
# Lookup of reported IC50 keyed by entry
measure: IC50

[
  {
    "test smiles": "COCc1cccc2[nH]c(-c3n[nH]c4ncc(-c5cncc(CNC(C)C)c5C)cc34)nc12",
    "reported result": "> 100 µM"
  },
  {
    "test smiles": "CNCc1cncc(-c2cnc3[nH]nc(-c4nc5ccc(OC)cc5[nH]4)c3c2)c1",
    "reported result": "1.45 µM"
  },
  {
    "test smiles": "CNCc1cncc(-c2cnc3[nH]nc(-c4nc5cc6c(cc5[nH]4)OC(F)(F)O6)c3c2)c1",
    "reported result": "7.06 µM"
  },
  {
    "test smiles": "CCN(CC)c1ccc(NC(=O)c2cccc3[nH]c(-c4n[nH]c5ncc(-c6cncc7ccccc67)cc45)nc23)c(C)c1",
    "reported result": "> 100 µM"
  },
  {
    "test smiles": "COCc1cccc2[nH]c(-c3n[nH]c4ncc(-c5cncc(CNC(C)(C)C)c5)cc34)nc12",
    "reported result": "> 10 µM"
  },
  {
    "test smiles": "FC(F)(F)Oc1ccc2[nH]c(-c3n[nH]c4ncc(-c5cccnc5)cc34)nc2c1",
    "reported result": "> 100 µM"
  },
  {
    "test smiles": "CN1CCN(c2ccc3[nH]c(-c4n[nH]c5ncc(-c6cncc(CN7CCOCC7)c6)cc45)nc3c2)CC1",
    "reported result": "1.85 µM"
  },
  {
    "test smiles": "COCc1cccc2[nH]c(-c3n[nH]c4ncc(-c5cnccc5C)cc34)nc12",
    "reported result": "> 100 µM"
  }
]
